Test system: α2-subtype of the human α-adrenergic receptor
Test: SPA assay, affinity for the α2-subtype of the human α-adrenergic receptor
Format: binding
Conditions: at a concentration of 10 μM
QUANTITY MEASURED: α2-affinity, 10 μM (%)
Number only, in %; omit the unit.

As a guide, the following entries are already answered.
[[record]]
compound = "Cc1cc(C)n2c(NC3CCCCC3)c(C)nc2c1 [Example 19]"
quantity_measured = "α2-affinity, 10 μM"
reading_unit = "%"
value_measured = 81

[[record]]
compound = "FC(F)(F)c1ccc2nc(-c3ccco3)c(NC3CCCCC3)n2c1 [Example 26]"
quantity_measured = "α2-affinity, 10 μM"
reading_unit = "%"
value_measured = 70

[[record]]
compound = "Cc1ccn2c(NC3CCCCC3)c(C)nc2c1 [Example 18]"
quantity_measured = "α2-affinity, 10 μM"
reading_unit = "%"
value_measured = 74

[[record]]
compound = "Cc1ccc2nc(C)c(NC(C)(C)CC(C)(C)C)n2c1 [Example 17]"
quantity_measured = "α2-affinity, 10 μM"
reading_unit = "%"
value_measured = 65


Incoming: Which measured α2-affinity, 10 μM value corresponds to CC(=O)N(c1c(C2CCCCC2)nc2c(OCc3ccccc3)cccn12)C1CCCCC1 [Example 35] ?
Outgoing: 75

Incoming: Also check [C-]#[N+]CCCCCCNc1c(-c2ccc(OC)c(OC)c2)nc2cc(C)ccn12 [Example 24]
Outgoing: 75

Incoming: Do the same for [C-]#[N+]CCCCCCNc1c(-c2ccccc2OC)nc2ccc(C)cn12 [Example 25] please
Outgoing: 51

Incoming: Also need Cc1cc(C)n2c(NC(C)(C)CC(C)(C)C)c(C)nc2c1 [Example 23] , thanks.
Outgoing: 97

Incoming: Next compound up: COC(=O)CNc1c(C2CCCCC2)nc2c(OCc3ccccc3)cccn12 [Example 30]
Outgoing: 60
